The reported measurements were obtained from patent US20220119518A1.

Parameter: OD 450 nm. Scope: all listed entries.
SYSTEM_TESTED: T1, CEACAM1 antigen (Sino Biological, Inc.) (UniProt P13688 35-428)
T1 construct: Bought antigen, coated on the ELISA plate; construct not described; also called CEACAM1 (CD66a) antigen; CD66a
T1 sequence (looked up): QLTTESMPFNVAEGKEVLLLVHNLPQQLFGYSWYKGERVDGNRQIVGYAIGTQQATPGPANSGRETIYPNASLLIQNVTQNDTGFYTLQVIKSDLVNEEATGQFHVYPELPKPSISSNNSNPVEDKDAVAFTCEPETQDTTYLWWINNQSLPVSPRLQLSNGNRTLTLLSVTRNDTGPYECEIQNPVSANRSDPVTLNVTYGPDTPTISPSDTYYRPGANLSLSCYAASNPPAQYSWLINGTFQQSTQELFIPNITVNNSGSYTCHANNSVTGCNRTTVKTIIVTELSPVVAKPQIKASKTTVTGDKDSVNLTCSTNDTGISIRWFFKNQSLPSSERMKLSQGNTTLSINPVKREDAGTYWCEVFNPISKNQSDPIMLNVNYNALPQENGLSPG
ASSAY_COMMENT: ELISA, CEACAM1 coated 100 ng/well, antibody at 10000.00 ng/ml
Reply numerically in OD 450 nm, unit not repeated.

Documented OD 450 nm of recombinant humanized anti-CD66c antibody Protein ID 3043 (Vk8 + VH6) (antibody, V domains shown, also called hu 3043; #71) VH: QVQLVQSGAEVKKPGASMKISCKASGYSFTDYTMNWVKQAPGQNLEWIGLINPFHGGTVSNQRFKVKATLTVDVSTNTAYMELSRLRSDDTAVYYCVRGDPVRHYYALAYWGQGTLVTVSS VL: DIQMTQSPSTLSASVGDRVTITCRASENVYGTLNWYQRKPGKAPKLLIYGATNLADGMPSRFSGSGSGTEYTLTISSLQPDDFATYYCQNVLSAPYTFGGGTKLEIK : 0.91

Documented OD 450 nm of recombinant humanized anti-CD66c antibody Protein ID 3007 (Vk7 + VH6) (antibody, human IgG1, V domains shown, also called hu 3007; #43) VH: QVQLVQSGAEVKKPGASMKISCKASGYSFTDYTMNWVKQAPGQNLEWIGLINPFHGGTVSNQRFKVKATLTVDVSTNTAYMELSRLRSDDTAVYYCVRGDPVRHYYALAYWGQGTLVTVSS VL: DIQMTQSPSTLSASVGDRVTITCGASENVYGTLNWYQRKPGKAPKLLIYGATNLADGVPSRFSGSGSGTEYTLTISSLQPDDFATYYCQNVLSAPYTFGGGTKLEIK : 1.01

Documented OD 450 nm of anti-CD66c chimeric antibody 8F5 (antibody, human IgG1, V domains shown, also called chimeric 8F5; chi 8F5) VH: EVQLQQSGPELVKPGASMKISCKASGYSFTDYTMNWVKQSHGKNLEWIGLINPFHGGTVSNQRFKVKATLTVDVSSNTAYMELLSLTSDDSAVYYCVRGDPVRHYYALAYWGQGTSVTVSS VL: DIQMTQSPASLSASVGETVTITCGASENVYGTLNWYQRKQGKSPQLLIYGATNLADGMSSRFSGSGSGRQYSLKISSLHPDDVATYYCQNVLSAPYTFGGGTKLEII : 1.21

Documented OD 450 nm of recombinant humanized anti-CD66c antibody Protein ID 3058 (Vk8 + VH11) (antibody, human IgG1, V domains shown, also called hu 3058; #86) VH: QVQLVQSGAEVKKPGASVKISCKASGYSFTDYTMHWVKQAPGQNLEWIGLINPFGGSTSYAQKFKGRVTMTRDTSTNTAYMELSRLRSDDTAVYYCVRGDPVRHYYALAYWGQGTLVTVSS VL: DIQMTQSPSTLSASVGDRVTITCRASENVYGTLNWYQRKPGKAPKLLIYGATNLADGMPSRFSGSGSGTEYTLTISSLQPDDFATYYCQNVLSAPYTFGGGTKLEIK : 0.42
